# Tested on: SK-OV-3 ovarian
# method_notes: NCI tumour cell line growth inhibition, 48 h
experimental_endpoint: GI50

COc1ccc(N2Cc3cnc(Nc4ccccc4)nc3N([C@@H]3CC[C@@H](O)C3)C2=O)cc1	3.69 µM
O=C1C(c2c[nH]c3ccccc23)=C(c2c[nH]c3ccccc23)C(=O)N1O	> 25 µM
COc1ccc2c(c1)C(=O)c1c-2n(CCCN=[N+]=[N-])c(=O)c2cc(N(C)C)ccc12	> 100 µM
CC(C)CNCC(O)COc1ccc(C(C)(C)c2ccc(OCC(O)CNCC(C)C)cc2)cc1 (stereo unspecified)	4.09 µM
CCC(=O)O[C@H]1CC[C@H]2[C@@H]3CC[C@H]4CC(=O)[C@H](C)C[C@]4(C)[C@H]3CC[C@]12C	> 81.7 µM

**Q:** Item: `CCn1c(C(=O)N(C2CC2)C2CC2)cc2c3c(ncn3C)c(Nc3cc(C)n(C)n3)nc21` Test system: SK-OV-3 ovarian Read-out: GI50 Value: ?
**A:** > 100 µM

----------
# Tested on: ACHN renal
# method_notes: NCI tumour cell line growth inhibition, 48 h
experimental_endpoint: TGI

COc1cccc(CC(C)NCC(O)c2ccc(O)c(O)c2)c1 (stereo unspecified)	> 100 µM
CCO/C=C/C(C)C1(C(=O)OCC)CCCCC1=O (stereo unspecified)	> 100 µM
O=Nc1c(-c2c(O)[nH]c3ccc([N+](=O)[O-])cc23)[nH]c2ccc(O)cc12	> 100 µM
CC1OC(OCC2OC(Oc3c(-c4ccc(O)cc4)oc4cc(O)cc(O)c4c3=O)C(OC3OC(C)C(O)C(O)C3O)C(O)C2O)C(O)C(O)C1O (stereo unspecified)	> 100 µM
CC12N=NN(c3ccc([N+](=O)[O-])cc3)C1(O)c1ccccc1C2=O (stereo unspecified)	> 100 µM

**Q:** If you can, please state the reported TGI value of `CO/C(=N\N=C\c1cccc(Cl)c1)c1ccncc1` .
**A:** > 10 µM

**Q:** Endpoint output: TGI of `Cc1ccc(-c2cc(-c3ccco3)c(C#N)c(=O)[nH]2)cc1` . Value?
**A:** > 100 µM

**Q:** Item `N=C1N(S(=O)(=O)c2ccccc2)[C@@H](Cc2ccccc2)[C@H](c2ccccc2)C1(c1ccccc1)c1ccccc1` has what recorded TGI?
**A:** > 100 µM

**Q:** Look up TGI for this molecule: `NC(=S)N/N=C\c1ccc(OCc2cccc(COc3ccc(/C=N/NC(N)=S)cc3)n2)cc1`
**A:** > 100 µM

**Q:** Quick check: TGI of `N/N=C1/C2CN3CCN(C2)CC1(c1ccc([N+](=O)[O-])cc1)C3` ?
**A:** > 100 µM

**Q:** // lookup TGI for `COc1ccc(NC(=O)C(=O)Cc2nc3ccc([N+](=O)[O-])cc3[nH]c2=O)c(OC)c1`
**A:** > 100 µM

**Q:** Give its TGI value. Item: `Cc1c(S(C)(=O)=O)c(-c2cc(F)cc(N3CCN(c4ccc(NS(=O)(=O)c5ccc(N[C@H](CCN6CCC(C(=O)OCCCP(=O)(O)O)CC6)CSc6ccccc6)c(S(=O)(=O)C(F)(F)F)c5)cc4)CC3)c2)c(-c2ccc(Cl)cc2)n1C(C)C`
**A:** > 100 µM
